Entries and their Pre-emergence action against ORYSA in %
System: Oryza sativa (ORYSA)
Type: in vivo
Details: pre-emergence, 80 g/ha, crop plant compatibility, in comparison to untreated controls
In your response, put the unit directly after the numeric value.

Past entries and their recorded results:
CCOC(=O)COc1nn(-c2ccc(Br)c(C)n2)c(-c2cncc(F)c2)c1Br: 0%
C[C@H](NC(=O)COc1nn(-c2ccnc(F)c2)c(-c2ccc(F)nc2)c1Br)C(=O)O: 0%
COC(=O)[C@H](C)NC(=O)COc1nn(-c2ccnc(F)c2)c(-c2ccc(F)nc2)c1Br: 0%
COC(=O)CNC(=O)COc1nn(-c2cccc(C)n2)c(-c2ccc(F)nc2)c1Br: 20%
COC(=O)C1CCCN(C(=O)COc2nn(-c3ccccn3)c(-c3ccc(F)nc3)c2Br)C1 (stereo not drawn): 0%

Please report Pre-emergence action against ORYSA in % for the following compound: CCOC(=O)COc1nn(-c2ccncc2)c(-c2ccc(F)nc2)c1Br
0%

---

System: Lolium rigidum (LOLRI)
Assay: Post-emergence herbicidal action against LOLRI
Format: in vivo
Conditions: dosage 320 g/ha
Protocol: Seeds of monocotyledonous and dicotyledonous weeds and crop plants are placed in sandy loam in plastic or organic planting pots, covered with soil and cultivated in a greenhouse under controlled growth conditions. 2 to 3 weeks after sowing, the test plants are treated at the one-leaf stage. […]
Entries and their Post-emergence action against LOLRI in %

Past entries and their recorded results:
CCOC(=O)COc1nn(-c2ncccc2F)c(-c2ccnc(F)c2)c1I: 90%
COCCOC(=O)COc1nn(-c2ccccn2)c(-c2ccc(F)nc2)c1Br: 90%
C[C@@H](Oc1nn(-c2ncccc2F)c(-c2ccc(F)nc2)c1I)C(=O)O: 90%
CCOC(=O)COc1nn(-c2ncccc2F)c(-c2cncc(F)c2)c1C1CC1: 80%
CCOC(=O)CSc1nn(-c2ccccn2)c(-c2cncc(F)c2)c1Cl: 90%

Please report Post-emergence action against LOLRI in % for the following molecule: COC(=O)CSc1nn(-c2ccccn2)c(-c2cncc(F)c2)c1Br
90%

Please report Post-emergence action against LOLRI in % for the following molecule: CSCCOC(=O)COc1nn(-c2ccccn2)c(-c2ccc(F)nc2)c1Br
80%

Please report Post-emergence action against LOLRI in % for the following molecule: COC(=O)COc1nn(-c2nc(F)ccc2F)c(-c2cncc(F)c2)c1Br
80%

Please report Post-emergence action against LOLRI in % for the following molecule: COC(=O)COc1nn(-c2ncccc2F)c(-c2cncc(F)c2)c1C1CC1
80%

Please report Post-emergence action against LOLRI in % for the following molecule: C[C@@H](Oc1nn(-c2ccccn2)c(-c2cncnc2)c1Cl)C(=O)O
90%

Please report Post-emergence action against LOLRI in % for the following molecule: CCOC(=O)COc1nn(-c2nc(F)ccc2F)c(-c2ccc(F)nc2)c1Cl
90%

---

Entries and their Pre-emergence action against ZEAMX in %
Test system: Zea mays (ZEAMX)
Format: in vivo
Settings: pre-emergence, 80 g/ha, crop plant compatibility, in comparison to untreated controls
Use % as the unit, but write only the number.

CC(C)N(C)S(=O)(=O)NC(=O)COc1nn(-c2ncccc2F)c(-c2ccc(F)nc2)c1Br: 20
COC(=O)CN(C)C(=O)COc1nn(-c2ccnc(Cl)c2)c(-c2ccc(F)nc2)c1Br: 0
O=C(O)COc1nn(-c2ncccc2C(F)(F)F)c(-c2ccc(F)nc2)c1Cl: 20
O=C(O)COc1nn(-c2ccccn2)c(-c2ccc(Cl)nc2)c1Br: 0
COC(=O)[C@H](C)NC(=O)COc1nn(-c2ccnc(Cl)c2)c(-c2ccc(F)nc2)c1Br: 20
CCOC(=O)COc1nn(-c2ncccc2F)c(-c2ccc(F)nc2)c1F: 0
COc1cccnc1-n1nc(OCC(=O)O)c(Br)c1-c1ccc(F)nc1: 0
COC(=O)CNC(=O)COc1nn(-c2ccccn2)c(-c2ccc(F)nc2)c1F: 0
CCOC(=O)COc1nn(-c2ncccc2C(F)(F)F)c(-c2cncc(F)c2)c1Br: 20
CCOC(=O)CN(C)S(=O)(=O)NC(=O)COc1nn(-c2ncccc2F)c(-c2ccc(F)nc2)c1Br: 0

Turning now to a further compound:
Please report Pre-emergence action against ZEAMX in % for the following compound: COC(=O)[C@@H](C)Oc1nn(-c2ccccn2)c(-c2ccc(Cl)nc2)c1Br
0

Ref: patent US20240041042A1
